experiment: Retardation factor in 1-butanol-ethyl acetate-acetic acid-water at 1:1:1:1 ratio by TLC; format: physicochemical; conditions: buffer
METRIC NAME: Rf

INPUT: Query Rf for CCNC(=O)[C@@H]1CCCN1C(=O)[C@H](CCCNC(=N)N)NC(=O)[C@H](CC(C)C)NC(=O)[C@@H](CCCN)NC(=O)[C@H](Cc1ccc(O)cc1)NC(=O)[C@H](CO)NC(=O)[C@H](Cc1c[nH]c2ccccc12)NC(=O)[C@@H]1CCC(=O)N1
OUTPUT: 0.78

INPUT: Please give the documented Rf of CC(=O)NCCCC[C@@H](NC(=O)[C@H](Cc1ccc(O)cc1)NC(=O)[C@H](CO)NC(=O)[C@H](Cc1c[nH]c2ccccc12)NC(=O)[C@H](Cc1cnc[nH]1)NC(=O)[C@@H]1CCC(=O)N1)C(=O)N[C@@H](CC(C)C)C(=O)N[C@@H](CCCNC(=N)N)C(=O)N1CCC[C@H]1C(=O)NCC(N)=O
OUTPUT: 0.73

INPUT: Please report the measured Rf for CCCCCCCCCCCCNCCC[C@@H](NC(=O)[C@H](Cc1ccc(O)cc1)NC(=O)[C@H](CO)NC(=O)[C@H](Cc1c[nH]c2ccccc12)NC(=O)[C@H](Cc1cnc[nH]1)NC(=O)[C@@H]1CCC(=O)N1)C(=O)N[C@@H](CC(C)C)C(=O)N[C@@H](CCCNC(=N)N)C(=O)N1CCC[C@H]1C(=O)NCC
OUTPUT: 0.72

INPUT: Write down Rf measured for item CCNC(=O)[C@@H]1CCCN1C(=O)[C@H](CCCNC(=N)N)NC(=O)[C@H](CC(C)C)NC(=O)[C@@H](CCCN)NC(=O)[C@H](Cc1ccc(O)cc1)NC(=O)[C@H](CO)NC(=O)[C@H](Cc1c[nH]c2ccccc12)NC(=O)[C@H](Cc1cnc[nH]1)NC(=O)[C@@H]1CCC(=O)N1
OUTPUT: 0.65
